Can you tell me Emax for the items I'm about to list?
TARGET UNDER TEST: LPAR1 (Homo sapiens, UniProt Q92633)
Construct: host or cells: U2OS
Sequence (Q92633 whole entry): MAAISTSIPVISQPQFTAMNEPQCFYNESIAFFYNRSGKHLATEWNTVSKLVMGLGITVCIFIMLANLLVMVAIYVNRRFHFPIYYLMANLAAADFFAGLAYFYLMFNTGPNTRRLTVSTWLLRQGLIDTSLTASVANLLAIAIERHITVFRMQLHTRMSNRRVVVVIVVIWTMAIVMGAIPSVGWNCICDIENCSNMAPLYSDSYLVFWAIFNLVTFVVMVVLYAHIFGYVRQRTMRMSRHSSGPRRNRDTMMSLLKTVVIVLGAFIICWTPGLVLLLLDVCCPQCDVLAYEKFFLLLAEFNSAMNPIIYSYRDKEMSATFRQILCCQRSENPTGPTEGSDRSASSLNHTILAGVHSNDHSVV
MEASUREMENT PROTOCOL: LPAR1 FLIPR Assay
Type: cell-based
APPLIED CONDITIONS: U2OS cells stably expressing LPAR1; LPA (EC80); Calcium 6 FLIPR dye; read-out: Maximum Inhibition
Give bare numbers, in %.

COc1cc(C(=O)N(CCCCC(=O)O)[C@H](C)CCc2ccccc2)cc(OC)c1C [Example 153] = 83
COc1cc(C(=O)N(CCCc2ccccc2)CCOCC(=O)NS(C)(=O)=O)cc(OC)c1C [Example 157] = 92
COc1cc(C(=O)N(CCCCC(=O)O)CCCc2ccc(C)o2)cc(OC)c1C(F)(F)F [Example 177] = 57
O=C(O)CCCCN(CCCc1ccccc1)C(=O)c1ccc2c(c1)OCO2 [Example 80] = 37
CCCCC(C)(CCCN(CCCc1ccccc1)C(=O)c1cc(OC)c(C)c(OC)c1)C(=O)O (stereo not shown) [Example 97] = 97
COc1cc(C(=O)N(CCCCC(=O)O)CCCc2cccc(C(F)(F)F)c2)cc(OC)c1C [Example 40] = 45

For each of the molecules below, note its Emax.
1. COc1cc(C(=O)N(CCCc2ccccc2)CCSC(C)CC(=O)O)cc(OC)c1C (stereo not shown) [Example 62]
2. COc1cc(C(=O)N(CCCc2ccccc2)CCCC(C)(O)C(=O)O)cc(OC)c1C (stereo not shown) [Example 155]
3. COc1cc(C(=O)N(CCCc2ccccc2F)CCOCC(=O)O)cc(OC)c1C [Example 110]
4. COc1cc(C(=O)N(CCCc2ccccc2)CCCC(O)C(=O)O)cc(OC)c1C1CC1 (stereo not shown) [Example 165]
5. COc1cc(C(=O)N(CCCc2ccc(F)cc2)CCOCC(=O)O)cc(OC)c1C [Example 139]
6. COc1cc(C(=O)N(CCCc2ccccc2)CCCC(C)(C)C(=O)O)cc(OC)c1C [Example 57]
7. COc1ccc(C2(C(=O)N(CCCCC(=O)O)CCCc3ccccc3)CC2)c(F)c1 [Example 103]

1: 97; 2: 90; 3: 90; 4: 83; 5: 78; 6: 100; 7: 75
